FYI, the data here is from the supplement of paper PMC9233669.

In this section, each of the sequences is paired with its reported self-aminoacylation.
test system: biotinyl-Val-oxazolone; assay: self-aminoacylation, catalytic enhancement (BVO) (fold over background); higher = more active; k-Seq, kA / k0A0; sequences stand for … in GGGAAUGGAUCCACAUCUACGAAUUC…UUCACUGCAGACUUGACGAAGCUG
Variants at the floor of the assay were thinned out.
Please reply with the number alone, leaving off any unit.

AUUAACCUAGGUCAUCGGGUU [Fam2.2 aminoacylation ribozyme variant]	4.78

The recorded self-aminoacylation for AUUGACCUAGGUCAUCGGGCG [Fam2.2 aminoacylation ribozyme variant] is 4.14

response.value for CCACACUUCAAGCAAACAGUC [Fam1B.1 aminoacylation ribozyme variant] (field: self-aminoacylation) = 0.757

Entry under test: CCACACUUUAAGCAAUCGUUC [Fam1B.1 aminoacylation ribozyme variant] . Its self-aminoacylation was 0.849

The reported value for AUUCGCCUAGAUCAUCGGGUG [Fam2.2 aminoacylation ribozyme variant] in terms of self-aminoacylation is 2.27

Entry AUCCACCUAGGUCAUCAGGUG [Fam2.2 aminoacylation ribozyme variant] , self-aminoacylation reported as 1.74

Field self-aminoacylation (entry CUACUUCAAAAAAUCAGUCUG [Fam1A.1 aminoacylation ribozyme variant] ) reads 0.754

For CCACACUUCACGCAAACGGUC [Fam1B.1 aminoacylation ribozyme variant] the sequence record lists self-aminoacylation as 0.995

self-aminoacylation reported for this sequence CUAAUUCAAACAAUUGGUCUG [Fam1A.1 aminoacylation ribozyme variant] : 0.687

# self-aminoacylation of CUACUUCAAAUAAGCGGUCUG [Fam1A.1 aminoacylation ribozyme variant] = 0.799

Looking up UCACACUUCAAGCAAUCGAUC [Fam1B.1 aminoacylation ribozyme variant] , I found its self-aminoacylation recorded as 0.808

self-aminoacylation reported for this sequence AUUACCUUGGUCAUCGAUUGA [Fam2.1 aminoacylation ribozyme variant] : 0.824

For reference, reported self-aminoacylation for CCAUACUUAAAGCAAUCGGUC [Fam1B.1 aminoacylation ribozyme variant] stands at 0.904

So, CUACUUCAAACAAUCGUACUG [Fam1A.1 aminoacylation ribozyme variant] ? Its self-aminoacylation was 0.533

self-aminoacylation recorded for this sequence, CCCCACUUCACGCAAUCGGUC [Fam1B.1 aminoacylation ribozyme variant] , is 2.61

Recorded result, AUUCACCUAGGUUAUAGGGUG [Fam2.2 aminoacylation ribozyme variant] , self-aminoacylation: 2.11

// recorded self-aminoacylation for AUUAGCCUAGUCAUCGAGUGA [Fam2.1 aminoacylation ribozyme variant] : 2.18

GET /value?item= AUUCAACUAGGGCAUCGGGUG [Fam2.2 aminoacylation ribozyme variant] &field=self-aminoacylation returns 2.88

----------
test system: biotinyl-Trp-oxazolone; test: self-aminoacylation, catalytic enhancement (BWO) (fold over background); higher = more active; k-Seq, kA / k0A0; sequences stand for … in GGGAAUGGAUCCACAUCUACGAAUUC…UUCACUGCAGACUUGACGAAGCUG
Fewer inactive variants are shown than the library holds.
observed property: self-aminoacylation
Give a plain numeric answer without units written out.

Examples with their reported self-aminoacylation follow.
CCAUACUUCAAGCAAUCGGAC [Fam1B.1 aminoacylation ribozyme variant]	0.768
ACCCACUUCAAGCAAUCGGUC [Fam1B.1 aminoacylation ribozyme variant]	15.2
AUUACCCUGGUCAUCCAGUAA [Fam2.1 aminoacylation ribozyme variant]	2.35

Continue with the next sequence.
// field: self-aminoacylation; key: ACUACCGUGGUCAUCGAGUGA [Fam2.1 aminoacylation ribozyme variant] ; value = 6.91
